- TEST_TARGET: T1, IL-18 receptors on HEK-Blue IL-18 reporter cells (UniProt Q13478 19-541; O95256 20-599, limits assumed); note: unit not given here
- T1 sequence (looked up) 1: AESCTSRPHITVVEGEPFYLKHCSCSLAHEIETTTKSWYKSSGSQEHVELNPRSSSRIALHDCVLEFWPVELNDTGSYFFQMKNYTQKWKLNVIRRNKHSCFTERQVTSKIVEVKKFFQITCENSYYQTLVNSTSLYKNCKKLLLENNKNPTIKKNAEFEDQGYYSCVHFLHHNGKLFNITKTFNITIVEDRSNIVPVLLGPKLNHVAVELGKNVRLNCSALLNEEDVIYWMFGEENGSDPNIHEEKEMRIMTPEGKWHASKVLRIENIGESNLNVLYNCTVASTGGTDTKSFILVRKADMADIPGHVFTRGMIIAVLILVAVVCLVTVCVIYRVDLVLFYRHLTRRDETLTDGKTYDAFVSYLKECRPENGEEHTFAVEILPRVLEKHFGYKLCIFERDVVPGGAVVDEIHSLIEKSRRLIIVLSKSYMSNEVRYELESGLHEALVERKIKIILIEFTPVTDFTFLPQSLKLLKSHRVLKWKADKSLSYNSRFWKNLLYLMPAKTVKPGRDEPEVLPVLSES
- T1 sequence (looked up) 2: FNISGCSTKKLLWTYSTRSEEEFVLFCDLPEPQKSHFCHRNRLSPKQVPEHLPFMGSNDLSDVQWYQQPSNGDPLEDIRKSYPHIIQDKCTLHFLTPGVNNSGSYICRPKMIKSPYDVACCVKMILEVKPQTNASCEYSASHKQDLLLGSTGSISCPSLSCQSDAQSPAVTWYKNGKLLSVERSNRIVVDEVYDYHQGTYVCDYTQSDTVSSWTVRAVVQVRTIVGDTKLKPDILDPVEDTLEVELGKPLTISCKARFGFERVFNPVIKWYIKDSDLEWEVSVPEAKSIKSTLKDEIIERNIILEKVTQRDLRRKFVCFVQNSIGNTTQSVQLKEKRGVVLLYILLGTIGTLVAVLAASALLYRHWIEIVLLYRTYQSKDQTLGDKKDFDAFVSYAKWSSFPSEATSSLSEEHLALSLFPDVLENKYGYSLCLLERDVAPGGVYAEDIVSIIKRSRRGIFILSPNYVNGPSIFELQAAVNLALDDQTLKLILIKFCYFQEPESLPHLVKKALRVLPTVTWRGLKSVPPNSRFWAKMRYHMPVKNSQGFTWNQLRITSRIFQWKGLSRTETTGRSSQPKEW
- MEASUREMENT_NOTES: cell-based or functional assay
Recorded HEK-Blue activity, No BP, DF-10000, one value per entry.
ENDPOINT_NAME: HEK-Blue activity, No BP, DF-10000

>>> assay_result("IL-18 variant K53N, S55A, R104N, P107A, H109Y (ligand) YFGKLESKLSVIRNLNDQVLFIDQGNRPLFEDMTDSDMRDNAPRTIFIISMYNDAQPRGMAVTISVKSEKISTLSSENKIISFKEMNPPDNIKDTKSDIIFFQNSVAGYDNKMQFESSSYEGYFLASEKERDLFKLILKKEDELGDRSIMFTVQNED")
0.21
>>> assay_result("IL-18 variant K53N, S55H, H109F (ligand) YFGKLESKLSVIRNLNDQVLFIDQGNRPLFEDMTDSDMRDNAPRTIFIISMYNDHQPRGMAVTISVKSEKISTLSSENKIISFKEMNPPDNIKDTKSDIIFFQRSVPGFDNKMQFESSSYEGYFLASEKERDLFKLILKKEDELGDRSIMFTVQNED")
0.13
>>> assay_result("IL-18 variant K53H, S55G (ligand) YFGKLESKLSVIRNLNDQVLFIDQGNRPLFEDMTDSDMRDNAPRTIFIISMYHDGQPRGMAVTISVKSEKISTLSSENKIISFKEMNPPDNIKDTKSDIIFFQRSVPGHDNKMQFESSSYEGYFLASEKERDLFKLILKKEDELGDRSIMFTVQNED")
0.13
>>> assay_result("IL-18 variant S36Q, D40T, K53P, S55L (ligand) YFGKLESKLSVIRNLNDQVLFIDQGNRPLFEDMTDQDMRTNAPRTIFIISMYPDLQPRGMAVTISVKSEKISTLSSENKIISFKEMNPPDNIKDTKSDIIFFQRSVPGHDNKMQFESSSYEGYFLASEKERDLFKLILKKEDELGDRSIMFTVQNED")
0.09
